target: VEGFR2 kinase (Homo sapiens (Human)); assay: VEGFR2 kinase assay; assay type: biochemical
Sequence (P35968 834-1162): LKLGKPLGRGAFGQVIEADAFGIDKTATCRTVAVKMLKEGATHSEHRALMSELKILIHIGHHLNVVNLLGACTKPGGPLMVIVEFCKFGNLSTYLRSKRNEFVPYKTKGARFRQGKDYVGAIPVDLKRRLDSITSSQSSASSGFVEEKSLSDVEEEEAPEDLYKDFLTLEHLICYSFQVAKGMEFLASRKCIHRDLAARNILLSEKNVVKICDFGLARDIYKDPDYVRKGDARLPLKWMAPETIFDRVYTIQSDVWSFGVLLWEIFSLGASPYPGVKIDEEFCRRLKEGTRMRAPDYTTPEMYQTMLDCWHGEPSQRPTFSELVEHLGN
observedProperty: IC50 (nM)

{"molecule": "COc1cc(-c2ccc3ncnc(Nc4cccc(O)c4)c3c2)ccc1O [Compound 8]", "displayUnit": "nM", "experimentalValue": 139}
{"molecule": "COc1cc(-c2ccc3ncnc(Nc4cc(O)ccc4F)c3c2)ccc1O [Compound 58]", "displayUnit": "nM", "experimentalValue": 23.5}
{"molecule": "COc1cc(-c2ccc3ncnc(Nc4ccc(O)cc4)c3c2)ccc1O [Compound 19]", "displayUnit": "nM", "experimentalValue": 5400}

* * *

target: B-Raf (V600E) (Homo sapiens (Human), UniProt P15056, V600E); experiment: Raf kinase assay (B-Raf (V600E)), [33P] incorporation into MEK1(K97R); format: biochemical
Sequence (P15056 whole entry V600E): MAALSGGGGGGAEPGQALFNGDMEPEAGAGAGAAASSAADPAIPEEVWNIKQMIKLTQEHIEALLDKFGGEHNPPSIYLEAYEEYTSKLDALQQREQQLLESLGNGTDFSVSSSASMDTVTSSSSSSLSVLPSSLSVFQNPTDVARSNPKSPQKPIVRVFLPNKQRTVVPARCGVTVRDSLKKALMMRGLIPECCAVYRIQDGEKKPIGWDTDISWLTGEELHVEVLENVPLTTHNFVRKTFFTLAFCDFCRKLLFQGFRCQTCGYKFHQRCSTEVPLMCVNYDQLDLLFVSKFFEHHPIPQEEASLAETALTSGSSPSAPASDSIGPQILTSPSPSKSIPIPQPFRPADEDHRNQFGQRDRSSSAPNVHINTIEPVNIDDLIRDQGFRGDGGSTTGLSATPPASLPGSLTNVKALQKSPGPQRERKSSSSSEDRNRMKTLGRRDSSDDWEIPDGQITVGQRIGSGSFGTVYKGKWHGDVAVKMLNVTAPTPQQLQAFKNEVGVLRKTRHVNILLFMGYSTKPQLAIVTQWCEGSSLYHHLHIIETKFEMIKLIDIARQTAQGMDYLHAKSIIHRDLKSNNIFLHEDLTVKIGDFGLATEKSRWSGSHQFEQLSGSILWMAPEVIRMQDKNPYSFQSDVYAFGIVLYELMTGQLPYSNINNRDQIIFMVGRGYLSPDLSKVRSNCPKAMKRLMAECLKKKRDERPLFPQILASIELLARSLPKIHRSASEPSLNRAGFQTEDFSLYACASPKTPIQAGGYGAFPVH
Threshold check on IC50: strictly below 400 nM is fulfilled; on or above 400 nM is not fulfilled.

{"recordSmiles": "COc1cc(-c2ccc3ncnc(Nc4cccc(O)c4)c3c2)ccc1O", "className": "fulfilled"}
{"recordSmiles": "CCCS(=O)(=O)Nc1cccc(-c2ccc3ncnc(Nc4cccc5[nH]ncc45)c3c2)c1", "className": "fulfilled"}
{"recordSmiles": "COc1cc(-c2ccc3ncnc(Nc4cccc(O)c4C)c3c2)ccc1O", "className": "fulfilled"}
{"recordSmiles": "COc1ccc(-c2ccc3ncnc(Nc4cccc5[nH]ncc45)c3c2)c(C)c1", "className": "not fulfilled"}
{"recordSmiles": "COc1ccc(-c2ccc3ncnc(Nc4cccc5[nH]ncc45)c3c2)cc1F", "className": "fulfilled"}
{"recordSmiles": "COc1ccc(-c2ccc3ncnc(Nc4cccc5[nH]ncc45)c3c2)cc1", "className": "not fulfilled"}
{"recordSmiles": "Cc1ccc(F)cc1-c1ccc2ncnc(Nc3cccc4[nH]ncc34)c2c1", "className": "fulfilled"}
{"recordSmiles": "COc1cc(-c2ccc3ncnc(Nc4cccc5[nH]ncc45)c3c2)ccc1O", "className": "fulfilled"}
{"recordSmiles": "N#Cc1ccc(-c2ccc3ncnc(Nc4cccc5[nH]ncc45)c3c2)cc1", "className": "fulfilled"}

* * *

molecular target: B-Raf (Homo sapiens (Human), UniProt P15056); assay: Raf kinase assay (B-Raf), [33P] incorporation into MEK1(K97R); type: biochemical
Sequence (P15056 whole entry): as the sequence (P15056 whole entry V600E) above, with E600V counted along it
Please respond with Y when measured IC50 is strictly beneath 200 nM, and with N in all other cases.

{"compound": "COc1cc(-c2ccc3ncnc(Nc4cccc(O)c4)c3c2)ccc1O", "className": "Y"}
{"compound": "Nc1ccc(-c2ccc3nccc(Nc4cccc5[nH]ncc45)c3c2)cc1", "className": "N"}
{"compound": "COc1cc(-c2ccc3ncnc(Nc4cc(O)ccc4F)c3c2)ccc1O", "className": "Y"}
{"compound": "COc1cccc(-c2ccc3nccc(Nc4cccc5[nH]ncc45)c3c2)c1 [Compound 146]", "className": "N"}
{"compound": "Oc1c(F)ccc(Nc2ncnc3ccc(-c4ccc(Cl)cc4)cc23)c1F", "className": "Y"}
{"compound": "COc1cc(-c2cc3c(Nc4cc(O)ccc4Cl)ncnc3cc2OC)ccc1O", "className": "Y"}
{"compound": "COc1cc(-c2ccc3ncnc(Nc4cccc(C(F)(F)F)c4)c3c2)ccc1O", "className": "N"}
{"compound": "COc1cc(-c2ccc3ncnc(Nc4ccccc4F)c3c2)ccc1O", "className": "N"}
{"compound": "COc1ccc(-c2ccc3ncnc(Nc4cccc5[nH]ncc45)c3c2)cc1C", "className": "N"}
{"compound": "COc1cc(-c2ccc3ncnc(Nc4ccc(Cl)c(O)c4)c3c2)ccc1O", "className": "Y"}
{"compound": "NC(=O)c1cccc(-c2ccc3nccc(Nc4cccc5[nH]ncc45)c3c2)c1", "className": "Y"}
{"compound": "c1cc(Nc2ncnc3ccc(-c4ccc5[nH]ncc5c4)cc23)c2cn[nH]c2c1", "className": "Y"}
{"compound": "Oc1ccc(-c2ccc3ncnc(Nc4cccc(O)c4)c3c2)cc1", "className": "Y"}
{"compound": "COc1ccc(-c2ccc3nccc(Nc4cccc5[nH]ncc45)c3c2)cc1C=O", "className": "Y"}
{"compound": "CS(=O)(=O)c1ccc(-c2ccc3ncnc(Nc4cccc5[nH]ncc45)c3c2)cc1", "className": "N"}
{"compound": "COc1cc(-c2ccc3nccc(Nc4cccc5[nH]ncc45)c3c2)ccc1O", "className": "Y"}
{"compound": "Oc1ccc(-c2ccc3ncnc(Nc4cccc5[nH]ncc45)c3c2)cc1", "className": "N"}
{"compound": "CN(C)c1ccc(-c2ccc3ncnc(Nc4cccc5[nH]ncc45)c3c2)cc1", "className": "N"}
{"compound": "CN(C)c1ccc(-c2ccc3ncnc(Nc4cccc(O)c4)c3c2)cc1", "className": "N"}
{"compound": "COc1cc(-c2ccc3ncnc(Nc4cc(NS(C)(=O)=O)ccc4F)c3c2)ccc1O", "className": "N"}
{"compound": "OCc1cccc(-c2ccc3ncnc(Nc4cccc5[nH]ncc45)c3c2)c1", "className": "N"}
{"compound": "COc1cc(-c2ccc3ncnc(Nc4ccc(Cl)cc4F)c3c2)ccc1O", "className": "N"}
{"compound": "COc1cc(-c2ccc3ncnc(Nc4cccc(N)c4)c3c2)ccc1O", "className": "N"}
{"compound": "COc1cc(-c2ccc3nccc(Nc4cc(NS(C)(=O)=O)ccc4F)c3c2)ccc1O", "className": "N"}
{"compound": "COc1ccc(-c2ccc3nccc(Nc4cccc5[nH]ncc45)c3c2)cc1F", "className": "Y"}
{"compound": "Oc1c(F)ccc(Nc2ncnc3ccc(-c4ccc5[nH]ncc5c4)cc23)c1F", "className": "Y"}
{"compound": "CCS(=O)(=O)Nc1cccc(-c2ccc3ncnc(Nc4cccc5[nH]ncc45)c3c2)c1", "className": "N"}
{"compound": "CCCS(=O)(=O)Nc1cccc(-c2ccc3ncnc(Nc4cccc5[nH]ncc45)c3c2)c1", "className": "Y"}
{"compound": "COc1ccc(-c2ccc3ncnc(Nc4cccc(O)c4)c3c2)cc1", "className": "Y"}
{"compound": "COc1cc(-c2ccc3ncnc(Nc4ccc(C(=O)O)cc4O)c3c2)ccc1O", "className": "N"}
{"compound": "Oc1cccc(Nc2ncnc3ccc(-c4ccccc4)cc23)c1", "className": "Y"}
{"compound": "CCCS(=O)(=O)Nc1cccc(-c2ccc3nccc(Nc4cccc5[nH]ncc45)c3c2)c1", "className": "N"}
{"compound": "Fc1ccc(-c2ccc3ncnc(Nc4cccc5[nH]ncc45)c3c2)cc1F", "className": "Y"}
{"compound": "COc1ccc(Nc2ncnc3ccc(-c4ccc(O)c(OC)c4)cc23)cc1O", "className": "N"}

* * *

Measured IC50 values are reported for all entries that follow.
molecular target: UniProt P15056; test: Raf kinase assay (B-Raf), [33P] incorporation into MEK1(K97R); format: biochemical

{"recordSmiles": "Oc1cccc(-c2ccc3ncnc(Nc4cccc5[nH]ncc45)c3c2)c1", "IC50 [nM]": 227}
{"recordSmiles": "COc1cc(-c2ccc3ncnc(Nc4ccccc4O)c3c2)ccc1O", "IC50 [nM]": 669}
{"recordSmiles": "Cc1ccc(F)cc1-c1ccc2ncnc(Nc3cccc4[nH]ncc34)c2c1", "IC50 [nM]": 235}
{"recordSmiles": "COc1cc(-c2ccc3ncnc(Nc4cc(O)c(Cl)cc4F)c3c2)ccc1O", "IC50 [nM]": 11.1}
{"recordSmiles": "COc1cc(-c2ccc3ncnc(Nc4cccc(F)c4)c3c2)ccc1O", "IC50 [nM]": 560}

* * *

target: B-Raf (Homo sapiens (Human)); test: Raf kinase assay (B-Raf), [33P] incorporation into MEK1(K97R); assay type: biochemical; settings: 1.0 μM compound; read-out: B-Raf inhibition at 1.0 μM
Overview of reported inhibition at 1 µM across a group of molecules:
observedProperty: inhibition at 1 µM

{"recordSmiles": "c1ccc(Nc2ncnc3ccc(-c4ccccc4)cc23)cc1", "assayTarget": "B-Raf (Homo sapiens (Human))", "experimentalValue": "22.4%"}
{"recordSmiles": "COc1cc(-c2ccc3ncnc(Nc4cccc(O)c4)c3c2)ccc1O", "assayTarget": "B-Raf (Homo sapiens (Human))", "experimentalValue": "94.2%"}
{"recordSmiles": "COc1cc(-c2ccc3ncnc(Nc4cc(NS(C)(=O)=O)ccc4F)c3c2)ccc1O", "assayTarget": "B-Raf (Homo sapiens (Human))", "experimentalValue": "77.5%"}
{"recordSmiles": "COc1cc2ncnc(Nc3cccc(O)c3)c2cc1-c1ccc(O)cc1", "assayTarget": "B-Raf (Homo sapiens (Human))", "experimentalValue": "90.3%"}
{"recordSmiles": "Oc1c(F)ccc(Nc2ncnc3ccc(-c4ccc(Cl)cc4)cc23)c1F", "assayTarget": "B-Raf (Homo sapiens (Human))", "experimentalValue": "83%"}
{"recordSmiles": "COc1cc(-c2ccc3nccc(Nc4cccc5[nH]ncc45)c3c2)ccc1O", "assayTarget": "B-Raf (Homo sapiens (Human))", "experimentalValue": "85.2%"}
{"recordSmiles": "COc1cc(-c2ccc3ncnc(Nc4ccc(C(N)=O)cc4)c3c2)ccc1O", "assayTarget": "B-Raf (Homo sapiens (Human))", "experimentalValue": "37.8%"}
{"recordSmiles": "COc1ccc(-c2ccc3ncnc(Nc4cccc(O)c4)c3c2)cc1", "assayTarget": "B-Raf (Homo sapiens (Human))", "experimentalValue": "91.9%"}
